# Tested on: MV4-11
# Assay Comment: Antiproliferative activity against human MV4-11 cells
# Assay type: functional, cell-based

Smiles Text: C[C@H]1[C@@H](OC(=O)CCC(=O)NCCCNc2c3ccccc3nc3c2[nH]c2ccccc23)O[C@@H]2O[C@@]3(C)CC[C@H]4[C@H](C)CC[C@@H]1[C@@]24OO3
Value Unit: nM
IC50: 286
//
Smiles Text: COC(=O)c1ccc2c(c1)c(NCC(C)(C)CNC(=O)CCC(=O)O[C@H]1O[C@@H]3O[C@@]4(C)CC[C@H]5[C@H](C)CC[C@@H]([C@H]1C)[C@@]35OO4)c1c3ccccc3nc-1n2C
Value Unit: nM
IC50: 72
//
Smiles Text: COC(=O)c1ccc2c(c1)c(NCCCNC(=O)CCC(=O)O[C@H]1O[C@@H]3O[C@@]4(C)CC[C@H]5[C@H](C)CC[C@@H]([C@H]1C)[C@@]35OO4)c1c3ccccc3nc-1n2C
Value Unit: nM
IC50: 72
